System: 276233-004-R-J1-PDC complex spheroid viability
Experiment: Anticancer human tumor 276233-004-R-J1-PDC patient-derived colon adenocarcinoma cell line growth inhibition [GQUAD]
Conditions: second compound 0.316 µM; first compound 0.0316 µM; stronger effect = lower value
Exercise: state measured viability, T/C for each of the compounds provided.
Numbers only, in %.

Below is a list of compounds. For each, state its recorded viability, T/C.
1. Nc1ccn(C2OC(CO)C(O)C2(F)F)c(=O)n1 (stereo not given) + Cc1cnc(CNC(=O)c2c(=O)c3ccc(N4CCCN(C)CC4)nc3n3c2sc2ccccc23)cn1
2. COc1cc(C2c3cc4c(cc3C(OC3OC5COC(C)OC5C(O)C3O)C3COC(=O)C23)OCO4)cc(OC)c1O (stereo not given) + Cc1cnc(CNC(=O)c2c(=O)c3ccc(N4CCCN(C)CC4)nc3n3c2sc2ccccc23)cn1
3. COc1cc(C2c3cc4c(cc3C(OC3OC5COC(C)OC5C(O)C3O)C3COC(=O)C23)OCO4)cc(OC)c1O (stereo not given) + CN(C)c1ccc(Nc2c3ccc(NC(=O)CCN4CCCC4)cc3nc3cc(NC(=O)CCN4CCCC4)ccc23)cc1
4. Cc1cccc(N(C)C(=O)C2C(O)CCN2c2nc(C)cc(C(F)(F)F)c2C#N)c1 (stereo not given) + Cc1[nH]c2ccc(F)cc2c1-c1nc2c3cccnc3c3ncccc3c2[nH]1
5. CC(=O)O[C@H]1C(=O)[C@@]2(C)[C@H]([C@H](OC(=O)c3ccccc3)[C@]3(O)C[C@H](OC(=O)[C@H](O)[C@@H](NC(=O)c4ccccc4)c4ccccc4)C(C)=C1C3(C)C)[C@]1(OC(C)=O)CO[C@@H]1C[C@@H]2O + CN(C)c1ccc(Nc2c3ccc(NC(=O)CCN4CCCC4)cc3nc3cc(NC(=O)CCN4CCCC4)ccc23)cc1
6. O=C(NO)c1cnc(N2CCN(S(=O)(=O)c3ccc4ccccc4c3)CC2)nc1 + Cc1[nH]c2ccc(F)cc2c1-c1nc2c3cccnc3c3ncccc3c2[nH]1
7. CC(C)(O)C1CCC(Nc2ccc3ncc(-c4cccc(C(F)(F)F)c4)n3n2)CC1 (stereo not given) + Cc1[nH]c2ccc(F)cc2c1-c1nc2c3cccnc3c3ncccc3c2[nH]1
8. COc1ccc([C@@H](O)c2cc(-c3ncnc4cc(N5CCOCC5)ccc34)c(F)cc2Cl)nn1 + CN(C)c1ccc(Nc2c3ccc(NC(=O)CCN4CCCC4)cc3nc3cc(NC(=O)CCN4CCCC4)ccc23)cc1

Result:
1. 80
2. 85.4
3. 60.1
4. 74.6
5. 67.5
6. 50.4
7. 56.8
8. 78

Would you be so kind as to report viability, T/C for each listed record?
1. Nc1ccn(C2OC(CO)C(O)C2(F)F)c(=O)n1 (stereo not given) + CN(C)c1ccc(Nc2c3ccc(NC(=O)CCN4CCCC4)cc3nc3cc(NC(=O)CCN4CCCC4)ccc23)cc1
2. CC(C)n1c(=O)n(C)c2cnc3cc(F)c(-c4ccc(OCCCN5CCCCC5)nc4)cc3c21 + Cc1cnc(CNC(=O)c2c(=O)c3ccc(N4CCCN(C)CC4)nc3n3c2sc2ccccc23)cn1

Result:
1: 71.8; 2: 85.9

====

Test system: 276233-004-R-J1-PDC complex spheroid viability
Test: Anticancer human tumor 276233-004-R-J1-PDC cell line growth inhibition [GQUAD];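 also: spheroids exposed to drugs for seven days; 100% = DMSO vehicle control viability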
Conditions: second compound 0.0316 µM; first compound 0.0316 µM; stronger effect = lower value
measuredAttribute: viability, T/C (%)
Answers are plain numbers, in %.

Previously resolved entries follow.
COc1ccc([C@@H](O)c2cc(-c3ncnc4cc(N5CCOCC5)ccc34)c(F)cc2Cl)nn1 + CN(C)c1ccc(Nc2c3ccc(NC(=O)CCN4CCCC4)cc3nc3cc(NC(=O)CCN4CCCC4)ccc23)cc1: 88.8
C#Cc1c(F)ccc2cc(O)cc(-c3ncc4c(N5CC6CCC(C5)N6)nc(OCC56CCCN5CC(F)C6)nc4c3F)c12 (stereo not given) + Cc1cnc(CNC(=O)c2c(=O)c3ccc(N4CCCN(C)CC4)nc3n3c2sc2ccccc23)cn1: 115
O=C(c1cc(Cc2n[nH]c(=O)c3ccccc23)ccc1F)N1CCN(C(=O)C2CC2)CC1 + Cc1cnc(CNC(=O)c2c(=O)c3ccc(N4CCCN(C)CC4)nc3n3c2sc2ccccc23)cn1: 80.1
O=c1[nH]cc(F)c(=O)[nH]1 + CN(C)c1ccc(Nc2c3ccc(NC(=O)CCN4CCCC4)cc3nc3cc(NC(=O)CCN4CCCC4)ccc23)cc1: 93.7

Task: // lookup viability, T/C for CC1COCCN1c1cc(C2(O)CC3CCC(C2)O3)c2cnn(-c3ccn[nH]3)c2n1 (stereo not given) + Cc1[nH]c2ccc(F)cc2c1-c1nc2c3cccnc3c3ncccc3c2[nH]1
Result: 91
